Entry source: ChEMBL document CHEMBL1137046

Target sequence: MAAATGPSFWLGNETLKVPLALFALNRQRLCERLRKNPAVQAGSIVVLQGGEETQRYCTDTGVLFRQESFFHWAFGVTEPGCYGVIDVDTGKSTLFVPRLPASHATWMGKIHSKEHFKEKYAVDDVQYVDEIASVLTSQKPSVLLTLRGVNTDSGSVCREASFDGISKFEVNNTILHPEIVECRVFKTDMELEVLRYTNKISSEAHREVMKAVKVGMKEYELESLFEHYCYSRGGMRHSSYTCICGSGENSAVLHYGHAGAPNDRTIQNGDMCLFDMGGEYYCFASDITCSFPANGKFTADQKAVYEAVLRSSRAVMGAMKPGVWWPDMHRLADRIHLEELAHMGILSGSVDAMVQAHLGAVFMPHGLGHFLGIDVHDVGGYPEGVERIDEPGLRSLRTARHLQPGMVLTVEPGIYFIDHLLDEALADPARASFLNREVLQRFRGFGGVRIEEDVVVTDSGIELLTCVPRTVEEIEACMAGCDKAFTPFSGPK
IC50 by entry:

The following molecules have reported results that may help.
NC(CC(=O)N1CCC[C@H]1C(=O)NCc1ccc(C(F)(F)F)cc1)Cc1ccccc1F.O=C(O)C(F)(F)F (stereo not given in full)
> 100 µM
CC(C)[C@@H](Oc1ccc(CNC(=O)[C@@H]2CCCN2C(=O)CC(N)Cc2c(F)c(F)c(F)c(F)c2F)cc1)C(=O)O.O=C(O)C(F)(F)F (stereo not given in full)
> 100 µM

Tell me the measured IC50 of CC(C)[C@@H](Oc1ccc(CNC(=O)[C@@H]2CCCN2C(=O)CC(N)Cc2cc(F)ccc2F)cc1)C(=O)O.O=C(O)C(F)(F)F (stereo not given in full) , please.
> 100 µM

Tell me the measured IC50 of COC(=O)Cc1ccc(CNC(=O)[C@@H]2CSCN2C(=O)CC(N)Cc2ccccc2F)cc1.O=C(O)C(F)(F)F (stereo not given in full) , please.
> 100 µM

Tell me the measured IC50 of NC(CC(=O)N1CCC[C@H]1C(=O)NCCCCc1nn[nH]n1)Cc1ccccc1F.O=C(O)C(F)(F)F (stereo not given in full) , please.
> 100 µM

* * *

- TESTED SYSTEM: Voltage-gated inwardly rectifying potassium channel KCNH2 (Homo sapiens, UniProt Q12809)
- Sequence (Q12809 whole entry): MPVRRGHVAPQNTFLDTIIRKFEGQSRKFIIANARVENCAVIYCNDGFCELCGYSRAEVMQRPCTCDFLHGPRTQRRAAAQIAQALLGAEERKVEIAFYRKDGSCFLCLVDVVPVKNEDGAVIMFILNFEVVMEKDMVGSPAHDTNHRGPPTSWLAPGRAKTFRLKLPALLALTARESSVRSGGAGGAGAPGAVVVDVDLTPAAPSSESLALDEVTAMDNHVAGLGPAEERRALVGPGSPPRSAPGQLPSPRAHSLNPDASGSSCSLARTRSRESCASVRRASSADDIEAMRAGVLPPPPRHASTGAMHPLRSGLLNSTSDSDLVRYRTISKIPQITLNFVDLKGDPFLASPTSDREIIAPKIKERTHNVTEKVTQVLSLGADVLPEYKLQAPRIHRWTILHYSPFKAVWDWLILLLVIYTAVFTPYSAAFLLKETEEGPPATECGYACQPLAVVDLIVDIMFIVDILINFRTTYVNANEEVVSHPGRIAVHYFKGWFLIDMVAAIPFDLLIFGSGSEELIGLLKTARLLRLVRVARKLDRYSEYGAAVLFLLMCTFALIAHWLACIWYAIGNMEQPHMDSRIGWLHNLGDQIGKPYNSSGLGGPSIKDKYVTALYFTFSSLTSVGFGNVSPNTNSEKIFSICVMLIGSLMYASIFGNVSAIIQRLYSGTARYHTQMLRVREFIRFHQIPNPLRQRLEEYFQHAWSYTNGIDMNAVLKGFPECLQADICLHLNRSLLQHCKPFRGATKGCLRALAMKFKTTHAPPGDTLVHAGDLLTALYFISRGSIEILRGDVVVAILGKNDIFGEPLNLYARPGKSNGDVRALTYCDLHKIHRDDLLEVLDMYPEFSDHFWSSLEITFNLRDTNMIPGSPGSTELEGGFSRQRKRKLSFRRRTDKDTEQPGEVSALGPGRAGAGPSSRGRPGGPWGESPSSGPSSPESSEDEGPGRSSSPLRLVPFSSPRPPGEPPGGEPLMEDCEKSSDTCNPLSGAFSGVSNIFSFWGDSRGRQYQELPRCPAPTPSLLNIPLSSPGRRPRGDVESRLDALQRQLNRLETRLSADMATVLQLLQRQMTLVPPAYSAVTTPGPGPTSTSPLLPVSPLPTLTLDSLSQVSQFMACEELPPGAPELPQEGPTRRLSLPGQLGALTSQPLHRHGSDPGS
- ASSAY OVERVIEW: Inhibition of human Potassium channel HERG
MEASURE NAME: IC50 (µM)
Quick note: give the figure in µM, leave out the unit.

Tell me the measured IC50 of COC(=O)Cc1ccc(CNC(=O)[C@@H]2CSCN2C(=O)CC(N)Cc2ccccc2F)cc1.O=C(O)C(F)(F)F (some centres not stated) , please.
9.7

* * *

- TESTED SYSTEM: Dipeptidyl peptidase 2 (Homo sapiens)
MEASURE NAME: pIC50
Please report pIC50 as the negative decimal logarithm of the molar concentration, giving only the number.

Field: pIC50 (Dipeptidyl peptidase 2 (Homo sapiens)). Entry: COC(=O)Cc1ccc(CNC(=O)[C@@H]2CSCN2C(=O)CC(N)Cc2ccccc2F)cc1.O=C(O)C(F)(F)F (some centres not stated)
4.23

* * *

- TESTED SYSTEM: Dipeptidyl peptidase 9 (Homo sapiens)
- Sequence (Q86TI2 whole entry): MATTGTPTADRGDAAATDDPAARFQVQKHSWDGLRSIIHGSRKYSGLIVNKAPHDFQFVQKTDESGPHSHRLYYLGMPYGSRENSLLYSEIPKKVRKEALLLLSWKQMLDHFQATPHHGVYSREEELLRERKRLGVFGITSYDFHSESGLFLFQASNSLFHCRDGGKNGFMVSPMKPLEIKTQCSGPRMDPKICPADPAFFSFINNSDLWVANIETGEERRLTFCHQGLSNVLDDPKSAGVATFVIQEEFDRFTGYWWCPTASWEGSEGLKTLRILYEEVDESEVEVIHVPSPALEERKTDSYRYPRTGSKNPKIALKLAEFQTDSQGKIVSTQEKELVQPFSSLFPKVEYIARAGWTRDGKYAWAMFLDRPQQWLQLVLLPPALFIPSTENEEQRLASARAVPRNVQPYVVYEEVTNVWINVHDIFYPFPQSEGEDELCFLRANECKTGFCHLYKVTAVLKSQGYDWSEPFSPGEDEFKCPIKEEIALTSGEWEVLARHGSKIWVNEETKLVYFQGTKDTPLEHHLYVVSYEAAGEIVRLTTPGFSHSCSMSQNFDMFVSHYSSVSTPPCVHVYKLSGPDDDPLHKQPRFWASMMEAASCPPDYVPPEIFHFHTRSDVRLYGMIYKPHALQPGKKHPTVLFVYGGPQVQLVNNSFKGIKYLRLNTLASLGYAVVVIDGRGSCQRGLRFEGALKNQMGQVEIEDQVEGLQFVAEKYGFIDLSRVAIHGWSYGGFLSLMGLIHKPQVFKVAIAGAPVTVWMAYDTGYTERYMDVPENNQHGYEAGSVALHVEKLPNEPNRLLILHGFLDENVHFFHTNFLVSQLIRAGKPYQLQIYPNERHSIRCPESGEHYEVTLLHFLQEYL
MEASURE NAME: pIC50
Please report pIC50 as the negative decimal logarithm of the molar concentration, giving only the number.

Tell me the measured pIC50 of CC(C)[C@@H](Oc1ccc(CNC(=O)[C@@H]2CCCN2C(=O)CC(N)Cc2cc(F)ccc2F)cc1)C(=O)O.O=C(O)C(F)(F)F (some centres not stated) , please.
4.07
